Assay: Volume of distribution at steady state in IV-dosed cynomolgous monkey
Format: ADME, Macaca fascicularis
Conditions: cynomolgus monkey, in vivo, read-out: Vdss
Endpoint label: Vd (L/kg)
# number only, unit L/kg dropped from output

Item `CCn1nc(-c2cnc(N)c(OC(F)F)c2)c2ccn([C@@H]3CCC(F)(F)C[C@@H]3OC)c(=O)c21` has what recorded Vd?
4.8

----------
Assay: Intrinsic clearance in mouse liver microsomes
Format: ADME, Microsome
Conditions: read-out: CLH
microsomal CLint overview
# number only, unit µL/min/mg dropped from output

The examples below pair each entry with its known result.
CCc1nc(-c2cnc(N)c(C(F)(F)F)c2)c2ccc(C3CCN(C)CC3)cn12 : 15
CCn1nc(-c2cnc(N)c(OC(F)F)c2)c2ccn([C@@H]3CCC(F)(F)C[C@@H]3OC)c(=O)c21 : 18
CCn1nc(-c2cnc(N)c(OC(F)(F)F)c2)c2ccn([C@H]3CCN(C)C[C@H]3OC(F)(F)F)c(=O)c21 : 66
CCc1nc(-c2cnc(N)c(OC(F)F)c2)c2ccc([C@H]3COCCN3C)cn12 : 17

Read the next record carefully.
Item `CCn1nc(-c2cnc(N)c(OC(F)(F)F)c2)c2ccn(C3CCN(C4COC4)CC3)c(=O)c21` has what recorded microsomal CLint?
8.3

----------
bioavailability overview
Experiment: Oral bioavailability in mouse at 5 mg/kg
Type: ADME, organism-based
Details: in vivo

The examples below pair each entry with its known result.
CCc1nc(-c2cnc(N)c(OC(F)(F)F)c2)c2ccc([C@H]3COCCN3C)cn12 : 141%
CCc1nc(-c2cnc(N)c(C(F)(F)F)c2)c2ccc([C@H]3COCCN3C)cn12 : 112%
CCc1nc(-c2cnc(N)c(OC(F)F)c2)c2ccc([C@H]3COCCN3C)cn12 : 144%

Read the next record carefully.
Item `CCc1nc(-c2cnc(N)c(C(F)(F)F)c2)c2ccc(C3CCN(C)CC3)cn12` has what recorded bioavailability?
85%

----------
Assay: Inhibition of GST-tagged DLK (1 to 520 residues)(unknown origin) using MKK4 as substrate preincubated for 60 mins followed by substrate/ATP addition measured after 30 mins by HTRF assay
Design: species or system Homo sapiens
Ki overview
# number only, unit nM dropped from output

The examples below pair each entry with its known result.
CCc1nc(-c2cnc(N)c(C(F)(F)F)c2)c2ccc(C3COC3)cn12 : 1
CCc1nc(-c2cnc(N)c(C(F)(F)F)c2)c2ccc(C3CCN(C)CC3)cn12 : 0.3
Nc1ncc(-c2n[nH]c3cnccc23)cc1C(F)(F)F : 149
CCn1nc(-c2cnc(N)c(OC(F)(F)F)c2)c2ccc([C@H]3COCCN3C)cc21 : 1.2
Nc1ncc(-c2nn(C3CC3)c3c(=O)n(C4CCOCC4)ccc23)cc1OC(F)(F)F : 3.4
CCc1nc(-c2cnc(N)c(OC(F)(F)F)c2)c2cc(Cl)c([C@H]3COCCN3C)cn12 : 7.1
CCc1nc(-c2cnc(N)c(OC(F)(F)F)c2)c2ccc([C@H]3COCCN3C)cn12 : 0.8
CCc1nc(-c2cnc(N)c(OC(F)(F)F)c2)c2ccc(C3(N4CCOCC4)CC3)cn12 : 0.7
CN1CCC(Cc2ccc3c(-c4cnc(N)c(C(F)(F)F)c4)ncn3c2)CC1 : 4.5

Item `CN1CCC(c2ccc3c(-c4cnc(N)c(C(F)(F)F)c4)nc([C@@H]4CCCO4)n3c2)CC1` has what recorded Ki?
0.7

----------
inhibition at 0.5 h, 30 µM overview
Biological target: UniProt P08684
Sequence (P08684 whole entry): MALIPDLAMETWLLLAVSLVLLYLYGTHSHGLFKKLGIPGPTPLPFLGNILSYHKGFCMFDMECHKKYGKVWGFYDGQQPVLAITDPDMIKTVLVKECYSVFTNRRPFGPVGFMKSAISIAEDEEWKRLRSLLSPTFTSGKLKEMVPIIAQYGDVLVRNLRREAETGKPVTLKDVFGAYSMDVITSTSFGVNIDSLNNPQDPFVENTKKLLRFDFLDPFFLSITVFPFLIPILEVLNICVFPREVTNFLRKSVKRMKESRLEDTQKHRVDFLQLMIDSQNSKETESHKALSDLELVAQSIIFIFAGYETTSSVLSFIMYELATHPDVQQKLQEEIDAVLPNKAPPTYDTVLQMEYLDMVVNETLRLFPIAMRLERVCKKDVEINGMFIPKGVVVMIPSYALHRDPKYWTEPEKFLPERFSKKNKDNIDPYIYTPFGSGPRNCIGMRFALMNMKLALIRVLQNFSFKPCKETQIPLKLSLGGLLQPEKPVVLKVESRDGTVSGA
Assay: Time dependent inhibition of CYP3A4 (unknown origin) at 30 uM incubated for 30 mins relative to control
Format: ADME
Conditions: read-out: TDI
Entry format: amount then unit.

The examples below pair each entry with its known result.
CCc1nc(-c2cnc(N)c(OC(F)(F)F)c2)c2ccc([C@@]3(C)COCCN3C)cn12 : 62%
CCc1nc(-c2cnc(N)c(OC(F)(F)F)c2)c2ccc(C3CCOCC3)nn12 : 78%
CCc1nc(-c2cnc(N)c(OC(F)(F)F)c2)c2ccn(C3CCOCC3)c(=O)n12 : 87%
CCc1nc(-c2cnc(N)c(OC(F)(F)F)c2)c2ccc([C@H]3COCC(=O)N3C)cn12 : 65%

Read the next record carefully.
Item `CCc1nc(-c2cnc(N)c(OC(F)(F)F)c2)c2ccc([C@H]3COCCN3C)cn12` has what recorded inhibition at 0.5 h, 30 µM?
72%

----------
solubility kinetic overview
Assay: Kinetic solubility of compound at pH 6.8
Assay type: physicochemical
Conditions: buffer, read-out: Kinetic_solubility
# number only, unit µM dropped from output

CCc1nc(-c2cnc(N)c(OC(F)(F)F)c2)c2ccc([C@H]3COCCN3C)cn12 : 295
CN1CCC(Cc2ccc3c(-c4cnc(N)c(C(F)(F)F)c4)ncn3c2)CC1 : 68
Nc1ncc(-c2ncn3cc(C4CCN(C5COC5)CC4)ccc23)cc1C(F)(F)F : 6
CCc1nc(-c2cnc(N)c(C(F)(F)F)c2)c2ccc([C@H]3COCCN3C)cn12 : 320

Item `CN1CCC(c2ccc3c(-c4cnc(N)c(C(F)(F)F)c4)ncn3c2)CC1` has what recorded solubility kinetic?
80

Another: `CCc1nc(-c2cnc(N)c(C(F)(F)F)c2)c2ccc(C3CCOCC3)cn12`
1

Another: `CCc1nc(-c2cnc(N)c(C(F)(F)F)c2)c2ccc(C3CCN(C)CC3)cn12`
268

----------
Assay: Efflux ratio in MDCK-MDR1 cells
Assay type: ADME, cell-based, Canis lupus familiaris
Conditions: dog
Endpoint label: efflux ratio
Reply with just the number.

CCc1nc(-c2cnc(N)c(C(F)(F)F)c2)c2ccc(C3CCOCC3)cn12 : 0.8

Item `CCc1nc(-c2cnc(N)c(OC(F)(F)F)c2)c2ccc([C@H]3COCCN3C)cn12` has what recorded efflux ratio?
0.7

Another: `CCn1nc(-c2cnc(N)c(OC(F)(F)F)c2)c2ccc([C@H]3COCCN3C)cc21`
0.4

Another: `CCc1nc(-c2cnc(N)c(C(F)(F)F)c2)c2ccc(C3CCN(C)CC3)cn12`
1.6

Another: `CCc1nc(-c2cnc(N)c(C(F)(F)F)c2)c2ccc([C@H]3COCCN3C)cn12`
1

Another: `CCn1nc(-c2cnc(N)c(OC(F)(F)F)c2)c2ccn(C3CCOCC3)c(=O)c21`
1

Another: `CCc1nc(-c2cnc(N)c(OC(F)F)c2)c2ccc([C@H]3COCCN3C)cn12`
0.8

----------
Assay: Oral bioavailability in rat
Assay type: ADME, organism-based
Details: in vivo
Endpoint label: bioavailability
Entry format: amount then unit.

Item `CCn1nc(-c2cnc(N)c(OC(F)F)c2)c2ccn([C@@H]3CCC(F)(F)C[C@@H]3OC)c(=O)c21` has what recorded bioavailability?
57%

----------
IC50 overview
Test: Inhibition of human DLK transfected in HEK293-T-REx cells assessed as decrease in JNK phosphorylation incubated for 5 hrs by HTRF assay
Assay type: cell-based

Item `CCc1nc(-c2cnc(N)c(OC(F)(F)F)c2)c2ccc([C@H]3CC(=O)N(C)C3)cn12` has what recorded IC50?
0.07 µM

Another: `CN1CCC(c2ccc3c(-c4cnc(N)c(C(F)(F)F)c4)nc(C(F)(F)F)n3c2)CC1`
0.094 µM

----------
Assay: Inhibition of GST-tagged DLK (1 to 520 residues)(unknown origin) using MKK4 as substrate preincubated for 60 mins followed by substrate/ATP addition measured after 30 mins by HTRF assay
Set-up: species or system Homo sapiens
Endpoint label: Ki (nM)
# number only, unit nM dropped from output

Nc1ncc(-c2ncn3cc(C4CCN(C5COC5)CC4)ccc23)cc1C(F)(F)F : 3.2

Read the next record carefully.
Item `Nc1ncc(-c2ccc3ncsc3n2)cc1C(F)(F)F` has what recorded Ki?
416

----------
pIC50 overview
Experiment: Inhibition of human DLK transfected in HEK293-T-REx cells assessed as decrease in JNK phosphorylation incubated for 5 hrs by HTRF assay
Assay type: cell-based
Units for pIC50: none; it is -log10 of a concentration expressed in mol/L.

CCc1nc(-c2cnc(N)c(OC(F)(F)F)c2)c2ccc([C@H]3COCCN3C)cn12 : 7.32
CCc1nc(-c2cnc(N)c(OC(F)(F)F)c2)c2ccc([C@H]3COCC4(CC4)N3C)cn12 : 6.98
CN1CCC(Cc2ccc3c(-c4cnc(N)c(C(F)(F)F)c4)ncn3c2)CC1 : 6.39
CCc1nc(-c2cnc(N)c(C(F)(F)F)c2)c2ccc([C@H]3CN(C)CCO3)cn12 : 7.00
CCn1nc(-c2cnc(N)c(OC(F)(F)F)c2)c2ccc([C@H]3COCCN3C)nc21 : 7.03

Item `CCc1nc(-c2cnc(N)c(C(F)(F)F)c2)c2ccc(C3CCN(C)CC3)cn12` has what recorded pIC50?
7.64

Another: `CCn1nc(-c2cnc(N)c(OC(F)(F)F)c2)c2ccn([C@H]3CC4(CC4)OC[C@H]3OC)c(=O)c21`
6.70

Another: `CCc1nc(-c2cnc(N)c(OC(F)(F)F)c2)c2ccc(C3CCOCC3)nn12`
7.08

Another: `CCn1nc(-c2cnc(N)c(OC(F)(F)F)c2)c2ccn(C3CCOCC3)c(=O)c21`
6.96

Another: `CCn1nc(-c2cnc(N)c(OC(F)(F)F)c2)c2ccn(C3CCN(C)CC3)c(=O)c21`
6.89
